# Experimental Target: FAAH (Mus musculus)
# Sequence (O08914 whole entry): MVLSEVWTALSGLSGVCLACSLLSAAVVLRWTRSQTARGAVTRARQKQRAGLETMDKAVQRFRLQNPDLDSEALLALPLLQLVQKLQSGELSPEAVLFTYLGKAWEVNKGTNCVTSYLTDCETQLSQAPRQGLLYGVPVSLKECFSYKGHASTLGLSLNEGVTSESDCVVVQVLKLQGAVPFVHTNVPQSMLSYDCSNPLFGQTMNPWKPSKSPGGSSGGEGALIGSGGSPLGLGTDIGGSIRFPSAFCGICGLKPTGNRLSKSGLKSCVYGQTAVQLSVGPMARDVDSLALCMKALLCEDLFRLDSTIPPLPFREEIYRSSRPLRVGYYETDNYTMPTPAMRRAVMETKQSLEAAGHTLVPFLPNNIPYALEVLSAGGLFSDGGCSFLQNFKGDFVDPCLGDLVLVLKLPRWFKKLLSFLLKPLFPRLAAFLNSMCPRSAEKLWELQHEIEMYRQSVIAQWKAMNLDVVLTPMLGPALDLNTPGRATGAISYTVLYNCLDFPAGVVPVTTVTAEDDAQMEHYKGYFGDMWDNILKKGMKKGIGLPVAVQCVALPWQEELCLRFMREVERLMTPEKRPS
# Measurement Protocol: In vitro competitive activity-based protein profiling (FP-Rh), mouse FAAH
# Type: biochemical
# Design: from tissue; host or cells: mouse brain membrane fraction
# Condition Notes: Table 1, mouse proteome, 30 min preincubation at 37° C.
# Method: In Vitro Competitive Activity-Based Protein Profiling. Proteomes (mouse brain membrane fraction or cell lysates) (50 μL, 1.0 mg/ml total protein concentration) were preincubated with varying concentrations of inhibitors at 37° C. After 30 min, FP-Rh (1.0 μL, 50 μM in DMSO) was added and the mixture was incubated for another 30 min at 37° C. Reactions were quenched with SDS loading buffer (50 μL—4×) and run on SDS-PAGE.
// reported IC50 per item

>>> reported_result("O=C(ON1C(=O)CCC1=O)N1CCN(Cc2ccccc2Oc2ccccc2)CC1")
"1000 to 10000 nM"
>>> reported_result("CC1(C)CC(=O)N(OC(=O)N2CCN(C(c3ccc(Cl)cc3)c3ccc(Cl)cc3)CC2)C1=O")
"> 10000 nM"
>>> reported_result("CN1CC(=O)N(OC(=O)N2CCN(C(c3ccc(Cl)cc3)c3ccc(Cl)cc3)CC2)C1=O")
"> 10000 nM"
>>> reported_result("CCN(Cc1ccccc1)C(=O)ON1C(=O)CCC1=O")
"> 10000 nM"
>>> reported_result("O=C(NCCc1ccc(Oc2ccccc2)cc1)ON1C(=O)CCC1=O")
"100 to 1000 nM"
>>> reported_result("O=C(ON1C(=O)CCC1=O)N1CCN(Cc2ccc(Br)cc2Oc2ccccc2)CC1")
"1000 to 10000 nM"
>>> reported_result("O=C1CCC(=O)N1OC(=O)N1CCCCC1CO (stereo not drawn)")
"> 10000 nM"
>>> reported_result("O=C(ON1C(=O)CNC1=O)N1CCC(CCc2ccc(Cl)cc2)CC1")
"< 100 nM"

Prompt: Output IC50 of Cc1nc(-c2cccc(CN(C)C(=O)ON3C(=O)CCC3=O)c2)no1
Completion: > 10000 nM

Prompt: Output IC50 of COc1ccc(N2CCN(C(=O)ON3C(=O)CC(c4ccccc4)C3=O)CC2)cc1 (stereo not drawn)
Completion: 1000 to 10000 nM

Prompt: Output IC50 of CC(C)C1NC(=O)N(OC(=O)N2CCN(C(c3ccc(Cl)cc3)c3ccc(Cl)cc3)CC2)C1=O (stereo not drawn)
Completion: > 10000 nM

Prompt: Output IC50 of O=C(ON1C(=O)C2CCCCC2C1=O)N1CCN(C(c2ccc(Cl)cc2)c2ccc(Cl)cc2)CC1 (stereo not drawn)
Completion: > 10000 nM

Prompt: Output IC50 of CN(Cc1cccc(-c2ccncc2)c1)C(=O)ON1C(=O)CCC1=O
Completion: > 10000 nM
